Target: T1, GFP-9S library array, motif 4 ND N98P;D124I (synthetic construct, N98P;D124I)
T1 chain: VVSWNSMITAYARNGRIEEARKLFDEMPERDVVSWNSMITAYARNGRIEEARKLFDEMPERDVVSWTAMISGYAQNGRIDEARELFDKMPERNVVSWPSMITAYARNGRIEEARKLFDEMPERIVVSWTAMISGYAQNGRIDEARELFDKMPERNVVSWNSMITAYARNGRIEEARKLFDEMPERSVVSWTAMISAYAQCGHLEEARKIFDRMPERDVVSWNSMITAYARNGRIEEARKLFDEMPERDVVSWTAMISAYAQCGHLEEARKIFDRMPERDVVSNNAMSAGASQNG
Experiment: high-throughput RNA pulldown from lysate on Ni-NTA beads; HRP: 50 mM Tris pH 8, 150 mM NaCl, 1 mM beta-mercaptoethanol, 50 ug/ml BSA, 3 ug/ml yeast RNA, 0.5% heparin; ITC and FP: Tris pH 8, 200 mM KCl, 5% glycerol; MST: 50 mM Tris pH 8, 200 mM NaCl, 1 mM DTT, BSA, heparin, 0.05% Tween 20
Settings: tags: N-terminal His-eGFP; label: 5' IRDye 800CW
pKd: −log10 of the molar value.
# pKd per entry
Endpoint: pKd

AUUAUACGUGA (ssRNA) [IR-rpoA-U] ... 6.73
AUUAAACGUGA (ssRNA) [IR-rpoA-A] ... 6.56

Reference source for all entries: paper PMC8809517
